Value source: patent US7220875B2

system: pancreatin; assay: Pancreatin stability; assay type: in vitro ADME, porcine; details: 1% (w/v) pancreatin, pH 7.5, conjugate 5 μM, 37° C.
Criterion: % of Propofol Released from Propofol Prodrugs after 60 min. strictly under 8%. Met: True. Not met: False.

In [3]: df
Out[3]:
                                smiles_repr  assigned_label
0  CSCC[C@H](N)C(=O)N[C@@H](CC(=O)Oc1c(C(C)C)cccc1C(C)C)C(=O)O            True
1  CC(C)c1cccc(C(C)C)c1OC(=O)C[C@H](NC(=O)[C@@H](N)Cc1ccc(O)cc1)C(=O)O           False

# input Hello, is % of Propofol Released from Propofol Prodrugs after 60 min. of the following compound strictly smaller than 8%? CC(C)c1cccc(C(C)C)c1OC(=O)CC[C@H](NC(=O)[C@@H](N)CC(N)=O)C(=O)O
# output True

# input is_below(% of Propofol Released from Propofol Prodrugs after 60 min., 8%) for CC(C)c1cccc(C(C)C)c1OC(=O)CC[C@H](N)C(=O)N[C@@H](C)C(=O)O ?
# output False

# input For CC(C)c1cccc(C(C)C)c1OC(=O)C[C@H](NC(=O)[C@H](C)N)C(=O)O , is the recorded % of Propofol Released from Propofol Prodrugs after 60 min. below the cut-off of 8%?
# output True

====

assay: Enzymatic cleavage of prodrugs in vitro, rat liver S9; type: in vitro ADME; conditions: Rat Liver S9 (0.5 mg/mL), substrate 2.0 μM, NADPH, 37° C.
A collection of molecules and their measured % of Propofol Released from Propofol Prodrugs after 60 min.
Give your result in % as a bare value.

In [3]: df
Out[3]:
                                   molecule  units  test_result
0  CC(C)c1cccc(C(C)C)c1OC(=O)C[C@H](NC(=O)[C@@H](N)Cc1ccc(O)cc1)C(=O)O [Compound 122, H-Tyr-Asp(OPropofol)-OH]      %            9
1  CC(C)c1cccc(C(C)C)c1OC(=O)C[C@H](NC(=O)[C@H](C)N)C(=O)O [Compound 107, H-Ala-Asp(OPropofol)-OH]      %            6
2  CC(C)c1cccc(C(C)C)c1OC(=O)CC[C@H](N)C(=O)N[C@@H](C)C(=O)O [Compound 138, H-Glu(OPropofol)-Ala-OH]      %            0
3  CC(C)c1cccc(C(C)C)c1OC(=O)OC[C@H](NC(=O)[C@H](C)N)C(=O)O [Compound 161, H-Ala-Ser(β-OC(O)OPropofol)-OH]      %            8
4  CSCC[C@H](N)C(=O)N[C@@H](CC(=O)Oc1c(C(C)C)cccc1C(C)C)C(=O)O [Compound 121, H-Met-Asp(OPropofol)-OH]      %            0

Turning now to a further molecule:
# input % of Propofol Released from Propofol Prodrugs after 60 min. lookup needed for CC(C)c1cccc(C(C)C)c1OC(=O)CC[C@H](NC(=O)[C@@H](N)CC(N)=O)C(=O)O [Compound 124, H-Asn-Glu(OPropofol)-OH] , thanks.
# output 0
